Biological target: T1, DFNB31_1, Q9P202
T1 sequence (Q9P202 135-233, limits assumed, looked up): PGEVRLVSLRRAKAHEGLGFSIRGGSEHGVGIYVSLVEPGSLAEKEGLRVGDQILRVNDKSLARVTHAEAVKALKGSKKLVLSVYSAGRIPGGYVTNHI
Test: holdup assay
Set-up: key: below the threshold = too weak to quantify, mostly under pKd 3.1 to 4
Settings: plain residues with an end cap or a label only (N-terminal biotin on a linker: ahx)
Reported Metric: pKd

Worked cases, pKd given:
- Binder: "EKQAKGDTEF [CACYBP, Q9HB71]"
  pKd: "below the threshold"
- Binder: "QNTDDVQTSF [ACE2, Q9BYF1]"
  pKd: 3.47
- Binder: "QDEKVKESYV [ABCA1, O95477]"
  pKd: 3.88
- Binder: "TQKFRASTAL [FRMPD1, Q5SYB0]"
  pKd: "below the threshold"
- Binder: "TESNLQTSSC [CGN, Q9P2M7]"
  pKd: "below the threshold"
- Binder: "HTHSYIETHV [CNKSR2, Q8WXI2]"
  pKd: 4.23
- Binder: "APSRKLNTEI [TIAM1, Q13009]"
  pKd: 3.55
- Binder: "QPRTWLQSPV [RTKN, Q9BST9]"
  pKd: 4.35

Proceeding to the next binder to report its pKd.
Incoming: Output pKd of TEAKLTETNA [MYO18A, Q92614]
Outgoing: below the threshold
